# Tested on: P. falciparum drug-sensitive NF54 (PfNF54) asexual intra-erythrocytic parasites
# assay.overview: SYBR Green I proliferation assay, PfNF54 asexual blood stages
# Type: cell-based, Plasmodium falciparum
# run.conditions: Plasmodium falciparum, NF54, bounds stated in text; read-out: Pf NF54 ABS IC50
pIC50: −log10 of the molar value.
test.readout: pIC50

Note to self: pIC50 recorded for O=C(Nc1cccc(Nc2nccc(Nc3cccc(C(F)(F)F)c3)n2)c1)C1CC1 was > 6.00

Note to self: pIC50 recorded for COc1cc2c(Nc3ccc(NC(=O)c4ccccc4)cc3)ncnc2cc1OCCCN1CCOCC1 was > 6.00

====

# assay.overview: Rat hepatocyte clearance
# Type: in vitro ADME
# run.conditions: rat hepatocytes; read-out: Rat hepatocyte t1/2
# Source text: In vitro ADME analysis for logD, kinetic solubility (PBS, pH 7.4), human liver microsome clearance and t1/2, rat hepatocyte clearance and t1/2, and protein binding in Albumax media (simulating the malaria parasite culture media) was all performed as per standard assays by TCG LifeSciences.
Listing: half-life of selected compounds
Provide only the numeric value, understood in h.

[
  {
    "chemical.structure": "O=C(Nc1c[nH]nc1-c1nc2ccc(CN3CCOCC3)cc2[nH]1)NC1CC1",
    "units.text": "h",
    "half-life": 0.917
  }
]

Now for the compound whose half-life we want.
Note to self: half-life recorded for COc1cc(N2CCC(N3CCN(C)CC3)CC2)ccc1Nc1ncc(Cl)c(Nc2ccccc2S(=O)(=O)C(C)C)n1 was 3.28

Each recorded value in this set is attributed to paper PMC12707362.
